Recorded growth AUC, one value per entry.
Test system: Bacteroides caccae
Test: growth AUC relative to DMSO control (median of replicates) (fraction); higher = more growth (less inhibition), active = hit call of the paper
Conditions: 20 µM; 24 h
Give the figure by itself; no unit, no explanation.

Sample answers from the record:
Query: Could you share which growth AUC value was measured for COC(=O)NS(=O)(=O)c1ccc(N)cc1 ?
Reply: 0.901

Query: Could you share which growth AUC value was measured for c1cc2c3c(cccc3c1)CC2 ?
Reply: 1

Query: Could you share which growth AUC value was measured for CC(Oc1ccc(Oc2nc3ccc(Cl)cc3o2)cc1)C(=O)O (racemic) ?
Reply: 1.05

Query: Could you share which growth AUC value was measured for CCSC(=O)N1CCCCCC1 ?
Reply: 1.05

Query: Could you share which growth AUC value was measured for CC1=C(C(=O)Nc2ccccc2)S(=O)(=O)CCO1 ?
Reply: 0.983

***
Query: Could you share which growth AUC value was measured for COCC(=O)N(c1c(C)cccc1C)[C@@H](C)C(=O)OC ?
Reply: 0.953

Query: Could you share which growth AUC value was measured for O=P(OC(CCl)CCl)(OC(CCl)CCl)OC(CCl)CCl ?
Reply: 0.845

Query: Could you share which growth AUC value was measured for COP(=S)(Oc1cc(Cl)c(Br)cc1Cl)c1ccccc1 (stereo not given) ?
Reply: 0.949

Query: Could you share which growth AUC value was measured for CCCCN(CC)C(=O)SCCC ?
Reply: 1.01

Query: Could you share which growth AUC value was measured for CCNS(=O)(=O)C(F)(F)C(F)(F)C(F)(F)C(F)(F)C(F)(F)C(F)(F)C(F)(F)C(F)(F)F ?
Reply: 0.986
